system-tested: Histone-lysine N-methyltransferase SUV39H2 (Homo sapiens)
Sequence (Q9H5I1 whole entry): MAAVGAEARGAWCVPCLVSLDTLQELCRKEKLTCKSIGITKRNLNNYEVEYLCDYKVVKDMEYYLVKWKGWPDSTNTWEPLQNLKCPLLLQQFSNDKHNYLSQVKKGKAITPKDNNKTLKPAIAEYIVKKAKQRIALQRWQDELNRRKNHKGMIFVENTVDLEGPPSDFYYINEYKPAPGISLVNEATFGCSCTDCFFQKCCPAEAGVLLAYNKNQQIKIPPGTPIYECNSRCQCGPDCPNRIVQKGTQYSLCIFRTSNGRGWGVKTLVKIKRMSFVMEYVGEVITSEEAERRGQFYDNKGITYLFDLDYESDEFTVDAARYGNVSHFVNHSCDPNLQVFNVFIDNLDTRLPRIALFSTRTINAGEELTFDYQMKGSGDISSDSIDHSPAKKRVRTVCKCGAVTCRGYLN
observed-property: IC50

Task: Return IC50 measured with Histone-lysine N-methyltransferase SUV39H2 (Homo sapiens) given this compound: Nc1ncnc2c1ncn2[C@@H]1O[C@H](CSCC[C@H](N)C(=O)NCc2cc(-c3ccccc3)[nH]n2)[C@@H](O)[C@H]1O
Output: > 100 µM

====

Record form. Attribute: pIC50. Fill in for each entry.
system-tested: Histone-lysine N-methyltransferase EZH2 (Homo sapiens, UniProt O75530+Q09028+Q15022+Q15910, Y641N)
Sequence (Q15910 whole entry Y641N, one chain of several): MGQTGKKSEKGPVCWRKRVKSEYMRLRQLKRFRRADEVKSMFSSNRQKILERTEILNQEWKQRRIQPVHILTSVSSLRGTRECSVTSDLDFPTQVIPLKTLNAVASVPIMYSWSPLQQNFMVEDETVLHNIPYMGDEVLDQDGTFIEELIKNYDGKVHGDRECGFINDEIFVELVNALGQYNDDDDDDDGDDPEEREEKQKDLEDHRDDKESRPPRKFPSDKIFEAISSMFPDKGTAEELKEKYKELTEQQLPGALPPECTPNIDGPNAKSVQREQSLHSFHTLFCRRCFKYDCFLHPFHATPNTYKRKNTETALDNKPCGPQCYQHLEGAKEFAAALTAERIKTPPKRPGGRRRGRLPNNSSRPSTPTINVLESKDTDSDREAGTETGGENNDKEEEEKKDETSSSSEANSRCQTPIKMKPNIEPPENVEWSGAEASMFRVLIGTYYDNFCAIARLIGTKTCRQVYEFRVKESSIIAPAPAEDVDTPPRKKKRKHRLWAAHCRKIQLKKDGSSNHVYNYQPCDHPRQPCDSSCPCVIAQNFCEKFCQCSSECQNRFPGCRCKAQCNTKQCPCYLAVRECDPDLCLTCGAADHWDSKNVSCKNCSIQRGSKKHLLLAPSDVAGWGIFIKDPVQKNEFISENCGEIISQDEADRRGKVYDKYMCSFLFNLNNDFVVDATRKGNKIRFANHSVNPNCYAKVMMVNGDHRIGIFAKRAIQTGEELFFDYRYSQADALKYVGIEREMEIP
method-description: Inhibition of N-terminally FLAG-tagged EZH2 Y641N mutant in EZH2/SUZ12/EED/RbAp48 complex (unknown origin) expressed in baculovirus infected in SF9 cells assessed as inhibition of methylation of nucleosomes at H3K27 by scintillation counting in presence of [3H]SAM
Numbers only, as −log10 of the molar value.

molecule	quantitative-readout
Nc1ncnc2c1ncn2[C@@H]1O[C@H](CSCC[C@H](N)C(=O)NCc2cc(-c3ccccc3)[nH]n2)[C@@H](O)[C@H]1O	7.15

Answer for every listed entry: what is its pIC50? The entries follow.
1. Nc1ncnc2c1ncn2[C@@H]1O[C@H](CSCC[C@H](N)C(=O)NCc2cc3n(n2)CCN(Cc2ccccc2)C3)[C@@H](O)[C@H]1O
2. Nc1ncnc2c1ncn2[C@@H]1O[C@H](CSCC[C@H](N)C(=O)NCc2cc(C3CCC3)[nH]n2)[C@@H](O)[C@H]1O
3. CC(C)(C)c1cc(CNC(=O)[C@@H](N)CCSC[C@H]2O[C@@H](n3cnc4c(N)ncnc43)[C@H](O)[C@@H]2O)n[nH]1
4. Nc1ncnc2c1ncn2[C@@H]1O[C@H](CSCC[C@H](N)C(=O)NCc2cnn(-c3ccc(F)cc3)c2)[C@@H](O)[C@H]1O

Output:
1: 5.55; 2: 6.00; 3: 5.44; 4: 6.22

====

system-tested: Histone-lysine N-methyltransferase SUV39H1 (Homo sapiens)
Sequence (O43463 whole entry): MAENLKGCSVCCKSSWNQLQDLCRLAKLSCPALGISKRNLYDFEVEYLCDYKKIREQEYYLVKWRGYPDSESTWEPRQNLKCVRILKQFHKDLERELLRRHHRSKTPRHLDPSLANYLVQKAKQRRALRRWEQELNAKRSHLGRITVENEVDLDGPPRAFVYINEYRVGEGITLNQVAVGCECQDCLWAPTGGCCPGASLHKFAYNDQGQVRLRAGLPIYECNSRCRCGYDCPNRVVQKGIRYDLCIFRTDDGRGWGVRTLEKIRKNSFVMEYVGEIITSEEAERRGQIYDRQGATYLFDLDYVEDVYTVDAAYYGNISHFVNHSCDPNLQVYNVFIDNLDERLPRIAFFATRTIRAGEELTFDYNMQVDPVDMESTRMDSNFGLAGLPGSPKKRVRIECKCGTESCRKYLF
observed-property: pIC50
Answers are plain numbers, as −log10 of the molar value.

Task: Checklist item: pIC50 tested on Histone-lysine N-methyltransferase SUV39H1 (Homo sapiens), entry Nc1ncnc2c1ncn2[C@@H]1O[C@H](CSCC[C@H](N)C(=O)NCc2cc(-c3ccccc3)[nH]n2)[C@@H](O)[C@H]1O , value?
Output: 5.02

====

method-description: Permeability across MDCK2 cells
Format: ADME, cell-based, Canis lupus familiaris, MDCK-II
conditions: dog, MDCK; read-out: permeability
observed-property: Papp (×10⁻⁶ cm/s)
Give bare numbers, in ×10⁻⁶ cm/s.

Task: Consider the compound Nc1ncnc2c1ncn2[C@@H]1O[C@H](CSCC[C@H](N)C(=O)NCc2cc(-c3ccccc3)[nH]n2)[C@@H](O)[C@H]1O and give its measured Papp.
Output: 1

====

system-tested: Histone-lysine N-methyltransferase KMT5C (Homo sapiens)
Sequence (Q86Y97 whole entry): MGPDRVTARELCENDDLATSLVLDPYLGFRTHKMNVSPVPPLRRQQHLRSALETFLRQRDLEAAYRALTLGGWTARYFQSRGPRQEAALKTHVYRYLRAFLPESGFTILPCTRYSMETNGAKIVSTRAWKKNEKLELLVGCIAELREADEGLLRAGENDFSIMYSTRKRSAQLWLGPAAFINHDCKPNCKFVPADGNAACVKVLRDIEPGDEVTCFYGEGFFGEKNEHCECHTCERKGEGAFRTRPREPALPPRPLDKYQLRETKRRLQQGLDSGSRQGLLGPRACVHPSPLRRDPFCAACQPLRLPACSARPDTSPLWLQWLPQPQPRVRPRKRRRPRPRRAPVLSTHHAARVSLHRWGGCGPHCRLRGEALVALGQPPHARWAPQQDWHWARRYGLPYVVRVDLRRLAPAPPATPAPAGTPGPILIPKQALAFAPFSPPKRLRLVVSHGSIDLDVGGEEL
method-description: Inhibition of SUV420H2 (unknown origin) by HMT assay
observed-property: IC50

Task: Recorded IC50 for Nc1ncnc2c1ncn2[C@@H]1O[C@H](CSCC[C@H](N)C(=O)NCc2cc(-c3ccccc3)[nH]n2)[C@@H](O)[C@H]1O , please?
Output: > 100 µM

====

system-tested: Histone-lysine N-methyltransferase SETD7 (Homo sapiens, UniProt Q8WTS6)
Sequence (Q8WTS6 whole entry): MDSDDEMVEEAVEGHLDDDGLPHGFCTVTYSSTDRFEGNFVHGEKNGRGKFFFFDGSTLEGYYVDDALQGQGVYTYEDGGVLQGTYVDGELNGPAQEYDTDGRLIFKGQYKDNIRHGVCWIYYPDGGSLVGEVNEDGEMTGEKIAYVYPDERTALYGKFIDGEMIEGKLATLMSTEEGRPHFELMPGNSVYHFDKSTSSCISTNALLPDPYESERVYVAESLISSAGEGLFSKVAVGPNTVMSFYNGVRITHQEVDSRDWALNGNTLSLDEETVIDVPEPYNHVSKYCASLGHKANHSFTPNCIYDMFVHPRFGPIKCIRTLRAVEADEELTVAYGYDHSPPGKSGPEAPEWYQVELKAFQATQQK
pIC50: −log10 of the molar value.
observed-property: pIC50

Task: # query: pIC50 of entry Nc1ncnc2c1ncn2[C@@H]1O[C@H](CSCC[C@H](N)C(=O)NCc2cc(-c3ccccc3)[nH]n2)[C@@H](O)[C@H]1O
Output: < 4.00
